compounds and their reported inhibition
Species on record: Rattus norvegicus
Assay method text: Displacement of [3H]-Flumazenil from Central type benzodiazepine receptor in rat cerebral cortex membrane at 10 uM incubated for 90 mins by liquid scintillation counting method relative to control
Assay type: cell membranes

Guide cases for inhibition, answers given:
{"columns": ["Compound string", "Reported result"],
 "data": [
  ["CCOC(=O)c1ncn2c1CN=C(c1ccccc1)c1ccsc1-2", "> 80%"],
  ["CC(C)(C)OC(=O)c1ncn2c1CN=C(c1ccccc1)c1ccsc1-2", "> 80%"],
  ["CC(C)(C)OC(=O)c1ncn2c1CN=C(c1ccc(F)cc1)c1ccsc1-2", "> 80%"],
  ["CCOC(=O)c1ncn2c1CN=C(c1cccc(F)c1)c1ccsc1-2", "> 80%"],
  ["CC(C)(C)OC(=O)c1ncn2c1CN=C(c1cccc(F)c1)c1ccsc1-2", "> 80%"]
]}

Input: For the compound shown here, CCOC(=O)c1ncn2c1CN=C(c1ccc(F)cc1)c1ccsc1-2 , give the reported inhibition.
Output: > 80%

====

molecules and their reported Time
Assay method text: Hypnotic activity in mouse assessed as phenobarbital induced sleep induction time at 30 mg/kg, po administered 30 mins prior to phenobarbital challenge and measured for 30 mins (reference value: 4.4 +/- 1.1 min)
Type: ADME, organism-based
Experimental conditions: in vivo, 1 h, time 60 min

{"columns": ["Compound string", "Reported result"],
 "data": [
  ["CC(C)(C)OC(=O)c1ncn2c1CN=C(c1ccccc1)c1ccsc1-2", "4.4 min"],
  ["CC(C)(C)OC(=O)c1ncn2c1CN=C(c1ccc(F)cc1)c1ccsc1-2", "4.7 min"]
]}

Input: For the molecule shown here, CC(C)(C)OC(=O)c1ncn2c1CN=C(c1cccc(F)c1)c1ccsc1-2 , give the reported Time.
Output: 3.5 min

Input: For the molecule shown here, CCOC(=O)c1ncn2c1CN=C(c1ccccc1)c1ccsc1-2 , give the reported Time.
Output: 3.9 min

Input: For the molecule shown here, CCOC(=O)c1ncn2c1CN=C(c1ccc(F)cc1)c1ccsc1-2 , give the reported Time.
Output: 5.5 min

Input: For the molecule shown here, CCOC(=O)c1ncn2c1CN=C(c1cccc(F)c1)c1ccsc1-2 , give the reported Time.
Output: 5.2 min

====

Assay method text: Displacement of [3H]-Flumazenil from Central type benzodiazepine receptor in rat cerebral cortex membrane incubated for 90 mins by liquid scintillation counting method
Assay type: cell membranes
pIC50: −log10 of the molar value.
Threshold rule: pIC50 greater than or equal to 8 is fulfilled; below that, not fulfilled.

{"columns": ["Compound string", "Class"],
 "data": [
  ["CC(C)(C)OC(=O)c1ncn2c1CN=C(c1ccccc1)c1ccsc1-2", "fulfilled"]
]}

# ---- query molecule ----
Input: Check the entry CN1C(=O)CN=C(c2ccccc2)c2cc(Cl)ccc21 : does pIC50 equal or exceed 8?
Output: not fulfilled

====

Assay method text: Effect on locomotor activity in mouse at 30 mg/kg, po measured after 30 mins by hole-board test
Format: ADME, organism-based
Experimental conditions: in vivo, 0.5 h
molecules and their reported Activity
In your answer, state the number alone without any accompanying words.

{"columns": ["Compound string", "Activity"],
 "data": [
  ["CC(C)(C)OC(=O)c1ncn2c1CN=C(c1cccc(F)c1)c1ccsc1-2", 29.5],
  ["CCOC(=O)c1ncn2c1CN=C(c1cccc(F)c1)c1ccsc1-2", 27.3],
  ["CC(C)(C)OC(=O)c1ncn2c1CN=C(c1ccccc1)c1ccsc1-2", 33.4],
  ["CCOC(=O)c1ncn2c1CN=C(c1ccccc1)c1ccsc1-2", 28.2],
  ["CC(C)(C)OC(=O)c1ncn2c1CN=C(c1ccc(F)cc1)c1ccsc1-2", 26.7]
]}

Input: For the molecule shown here, CCOC(=O)c1ncn2c1CN=C(c1ccc(F)cc1)c1ccsc1-2 , give the reported Activity.
Output: 34.5
